test system: S. aureus NCIMB 9587; assay: Checkerboard synergy test; format: cell-based, Staphylococcus aureus; conditions: MIC as two-fold dilution fraction of each agent's final dilution (A^3IS 3%; antibiotics 1:100 to 1:3,200,000); overnight 35° C.
Reported Metric: MICs for A^3IS & antibiotics on S. aureus NCIMB 9587

{"Mol Smiles": "CC[C@H]1OC(=O)[C@H](C)[C@@H](O[C@H]2C[C@@](C)(OC)[C@@H](O)[C@H](C)O2)[C@H](C)[C@@H](O[C@@H]2O[C@H](C)C[C@H](N(C)C)[C@H]2O)[C@](C)(OC)C[C@@H](C)C(=O)[C@H](C)[C@@H](O)[C@]1(C)O", "Reading": "½"}
{"Mol Smiles": "CO/N=C(\\C(=O)N[C@@H]1C(=O)N2C(C(=O)O)=C(COC(N)=O)CS[C@H]12)c1ccco1", "Reading": "½"}
{"Mol Smiles": "Cc1onc(-c2c(F)cccc2Cl)c1C(=O)N[C@@H]1C(=O)N2[C@@H]1SC(C)(C)[C@@H]2C(=O)O", "Reading": "½"}
{"Mol Smiles": "CC1=C(C(=O)O)N2C(=O)[C@@H](NC(=O)[C@H](N)C3=CCC=CC3)[C@H]2SC1", "Reading": "¼"}
{"Mol Smiles": "CC[C@H]1OC(=O)[C@H](C)[C@@H](O[C@H]2C[C@@](C)(OC)[C@@H](O)[C@H](C)O2)[C@H](C)[C@@H](O[C@@H]2O[C@H](C)C[C@H](N(C)C)[C@H]2O)[C@](C)(O)C[C@@H](C)C(=O)[C@H](C)[C@@H](O)[C@]1(C)O", "Reading": "½"}

# input molecule: CC1(C)S[C@@H]2[C@H](NC(=O)[C@H](N)c3ccc(O)cc3)C(=O)N2[C@H]1C(=O)O ; wanted: its MICs for A^3IS & antibiotics on S. aureus NCIMB 9587
¼
